Test: Murine antitumor activity versus Pancreatic Ductal Adenocarcinoma #03
Type: in vivo
Details: mouse, in vivo, iv; administered intravenously, total dose; mice, Panc 03 study; read-out: MTD (maximum tolerated total dose)
Excerpt: Murine Antitumor Activaty Versus Pancreatic Ductal Adenocarcinoma #03. This is tumor growth inhibition, where T is the medium tumor burden in the treatment group times 100 at evaluation and C is the medium tumor burden in the control group at evaluation. This is the maximum tolerated total dose administered intravenously in mg/kg. This means the long term cures, the number of mice in the treatment group with no palpable tumor evidents after a minimum of 86 days/total number in treatment group. […]
Structures can show the parent of a compound that is named as a salt.
Param threshold (200 mg/kg) applies to MTD; output Fulfilled when value >= threshold, Not fulfilled when value < threshold.

> print(dat)
                                    compound  qualitative.label
 1  CCN(CC)CCn1nc2c3c(c(CN)ccc31)Sc1ccccc1-2      Not fulfilled
 2  CCN(CC)CCn1nc2c3c(c(CNS(C)(=O)=O)ccc31)Sc1ccc(OC)cc1-2          Fulfilled
 3  CCN(CC)CCn1nc2c3c(c(CNC=O)ccc31)Sc1ccc(OC)cc1-2          Fulfilled
 4  CCN(CC)CCn1nc2c3c(c(CNC=O)ccc31)Sc1ccccc1-2      Not fulfilled
 5  CCN(CC)CCn1nc2c3c(c(CNS(C)(=O)=O)ccc31)Sc1ccc(O)cc1-2      Not fulfilled
 6  CCN(CC)CCn1nc2c3c(c(CNC(=O)OC)ccc31)Sc1ccc(O)cc1-2      Not fulfilled
 7  CCN(CC)CCn1nc2c3c(c(CNC(=O)OC)ccc31)Sc1ccc(OC)cc1-2      Not fulfilled
 8  COc1cc(NS(C)(=O)=O)ccc1Nc1c2ccccc2nc2ccccc12 [mAMSA, reference compound]      Not fulfilled
 9  CCN(CC)CCn1nc2c3c(c(CNC)ccc31)Sc1ccccc1-2 [Ex 10, dihydrochloride hydrate]          Fulfilled
10  CCN(CC)CCn1nc2c3c(c(CNS(C)(=O)=O)ccc31)Sc1ccccc1-2      Not fulfilled
11  CCN(CC)CCNc1ccc(CN(C)S(C)(=O)=O)c2sc3ccccc3c(=O)c12 [WIN33377, reference compound]      Not fulfilled
12  CCN(CC)CCn1nc2c3c(c(CNC(=O)OC)ccc31)Sc1ccccc1-2      Not fulfilled
13  CCN(CC)CCn1nc2c3c(c(CN)ccc31)Sc1ccc(OC)cc1-2          Fulfilled
